pIC50: −log10 of the molar value.
// note: pIC50 values for Tyrosine-protein phosphatase non-receptor type 1 (Homo sapiens) were reported in different studies
measurement-kind: pIC50

compound	measurement-kind	result-modifier	recorded-number
O=C1CN(c2c(O)ccc(-c3n[nH]c4ccccc34)c2F)S(=O)(=O)N1	pIC50	<	6.00
Cc1cnn(CCNC(=O)c2ccc3sc(C(F)(F)P(=O)(O)O)c(Br)c3c2)c1	pIC50	=	5.50
CCCCCCCCCCCn1c(C)ccc1-c1ccc(O[C@H](Cc2ccccc2)C(=O)O)cc1	pIC50	=	6.64
Cn1c(=O)c(NCCOC2CCCC2)cc2cc(N3CC(=O)NS3(=O)=O)c(O)cc21	pIC50	≥	6.00
Cc1ccc(-c2ccc(O[C@@H](Cc3ccccc3)C(=O)O)cc2)n1-c1ccc(Br)cc1	pIC50	=	6.03
O=C1CN(c2c(O)ccc(-c3ccc(NS(=O)(=O)CC4CC4)cc3)c2F)S(=O)(=O)N1	pIC50	≥	6.00
NC(=O)c1cc(OCc2ccc(CS(N)(=O)=O)cc2)c2sc(C(F)(F)P(=O)(O)O)c(Br)c2c1	pIC50	=	7.49
CCc1csc([C@H](Cc2ccc(NS(=O)(=O)O)cc2)NC(=O)Cc2cccc(O)c2)n1	pIC50	=	5.18
CCCCOc1cc(C(N)=O)cc2c(Br)c(C(F)(F)P(=O)(O)O)sc12	pIC50	=	6.95
O=C1CN(c2c(O)ccc(-c3cc(C4CCOC4)n[nH]3)c2F)S(=O)(=O)N1 (centres unmarked)	pIC50	≥	6.00
Cn1nc(-c2ccc(O)c(N3CC(=O)NS3(=O)=O)c2F)nc1C1CC1(F)F (centres unmarked)	pIC50	≥	6.00
O=C(NCc1ccccc1N1CCOCC1)c1ccc2sc(C(F)(F)P(=O)(O)O)c(Br)c2c1	pIC50	=	5.38
CNC(=O)c1cc(OCCCS(C)(=O)=O)c2sc(C(F)(F)P(=O)(O)O)c(Br)c2c1	pIC50	=	8.04
CN1CCN(c2ccc(-c3ccc(O)c(N4CC(=O)NS4(=O)=O)c3F)cn2)CC1	pIC50	≥	6.00
O=C1CC(c2c(O)ccc(-c3cn(CC4CCCCC4)cn3)c2F)S(=O)(=O)N1 (centres unmarked)	pIC50	<	6.00
Cn1c(=O)c(NCCN2CCOCC2)cc2cc(N3CC(=O)NS3(=O)=O)c(O)cc21	pIC50	≥	6.00
Cc1cc(C)n(-c2ccc(Br)cc2)c1-c1ccc(O[C@H](Cc2ccccc2)C(=O)O)cc1	pIC50	=	6.38
O=P(O)(O)C(F)(F)c1sc2c(OCCCC(F)(F)F)cccc2c1Br	pIC50	=	6.55
NC(=O)c1cc(OCc2ccc(F)cc2OC(F)F)c2sc(C(F)(F)P(=O)(O)O)c(Br)c2c1	pIC50	=	6.88
O=C1CN(c2c(O)ccc(-c3cnn(CC4CC4)c3)c2F)S(=O)(=O)N1	pIC50	≥	6.00
CNc1nc(N)nc2nc(-c3c(N4C(C)CCC4C)cccc3C(F)(F)F)ccc12 (centres unmarked)	pIC50	=	6.10
O=C1CN(c2c(O)ccc(C3=CCC(NCC4CC4)CC3)c2F)S(=O)(=O)N1 (centres unmarked)	pIC50	≥	6.00
COc1ccc2[nH]cc(CCNC(=O)c3ccc4sc(C(F)(F)P(=O)(O)O)c(Br)c4c3)c2c1	pIC50	=	5.82
O=C1CN(c2c(O)ccc(-c3cc(N4CCCC4)n[nH]3)c2F)S(=O)(=O)N1	pIC50	≥	6.00
N#Cc1c(C(F)(F)P(=O)(O)O)sc2c(OCCCS(N)(=O)=O)cc(-c3c[nH]nn3)cc12	pIC50	=	8.44
Cc1ncc(-c2ccc(O)c(N3CC(=O)NS3(=O)=O)c2F)cn1	pIC50	≥	6.00
CC(C)CCc1cc(-c2ccc(O)c(N3CC(=O)NS3(=O)=O)c2F)[nH]n1	pIC50	≥	6.00
NC(=O)c1cc(OCc2ccc(-c3nccs3)cc2)c2sc(C(F)(F)P(=O)(O)O)c(Br)c2c1	pIC50	=	7.16
O=C1NC[C@@H](CNC(=O)c2ccc3sc(C(F)(F)P(=O)(O)O)c(Br)c3c2)N1	pIC50	=	5.38
COCC1C=C(c2ccc(O)c(N3CC(=O)NS3(=O)=O)c2F)CN1 (centres unmarked)	pIC50	≥	6.00
COC(=O)c1ccc2nc(-c3ccc(/C=C/C(=O)O)cc3)c(-c3ccc(/C=C/C(=O)O)cc3)nc2c1	pIC50	=	5.77
C[C@H]1C=C(c2ccc(O)c(N3CC(=O)NS3(=O)=O)c2F)CN1	pIC50	≥	6.00
